Source listed as patent US4254285A.

Give measured inhibition at 3200 µg/mL for each item. Keep answers brief.
Test system: continuous respiratory spasm induced by pilocarpine
run-description: Bronchodilator Activity (Pilocarpine Assay)
Assay type: in vivo
condition: Canis lupus familiaris, inhaled or nasal, 1 h; dog, aerosol, 3.2 mg/ml, 60 min. after drug administration
The response must be a number in % with no trailing unit.

Ask | Kindly indicate its recorded inhibition at 3200 µg/mL. Item: C=CC(O)(CC=CC1C(O)CC(=O)C1CC=CCCCC(=O)CO)CCCC (centres unmarked)
Reply | 66

Ask | Kindly indicate its recorded inhibition at 3200 µg/mL. Item: CCCCCC(O)CCC1CCC(=O)C1CCCCCCC(=O)CO (centres unmarked)
Reply | 30

Ask | Kindly indicate its recorded inhibition at 3200 µg/mL. Item: CCCCCC(C)(O)CC=CC1C(O)CC(=O)C1CCCCCCC(=O)CO (centres unmarked)
Reply | 55

Ask | Kindly indicate its recorded inhibition at 3200 µg/mL. Item: C=CC(O)(CC=CC1C(O)CC(=O)C1CCCCCCC(=O)CO)CCCC (centres unmarked)
Reply | 70

Ask | Kindly indicate its recorded inhibition at 3200 µg/mL. Item: CCCCC(O)(CC)CC=CC1C(O)CC(=O)C1CC=CCCCC(=O)CO (centres unmarked)
Reply | 35

Ask | Kindly indicate its recorded inhibition at 3200 µg/mL. Item: CCCCC(C)(O)CC=CC1C(O)CC(=O)C1CC=CCCCC(=O)CO (centres unmarked)
Reply | 70

Ask | Kindly indicate its recorded inhibition at 3200 µg/mL. Item: CCCCC1(C(O)C=CC2C(O)CC(=O)C2CCCCCCC(=O)CO)CCC1 (centres unmarked)
Reply | 60

Ask | Kindly indicate its recorded inhibition at 3200 µg/mL. Item: C=CC(O)(CC=CC1C(O)CC(=O)C1CC=CCCCC(=O)COC(C)=O)CCCC (centres unmarked)
Reply | 55

Ask | Kindly indicate its recorded inhibition at 3200 µg/mL. Item: CCCCC(C)(O)CC=CC1C(O)CC(=O)C1CCCCCCC(=O)CO (centres unmarked)
Reply | 45

Ask | Kindly indicate its recorded inhibition at 3200 µg/mL. Item: CCCCCC(O)C=CC1C(O)CC(=O)C1CCCCCCC(=O)CO (centres unmarked)
Reply | 15

Ask | Kindly indicate its recorded inhibition at 3200 µg/mL. Item: CCCCC1(C(O)C=CC2C(O)CC(=O)C2CC=CCCCC(=O)CO)CCC1 (centres unmarked)
Reply | 68

* * *

Give measured inhibition at 3200 µg/mL for each item. Keep answers brief.
Tested on: continuous respiratory spasm induced by pilocarpine
run-description: Bronchodilator Activity (Pilocarpine Assay)
Format: in vivo
condition: Canis lupus familiaris, inhaled or nasal, 5 min; dog, aerosol, 3.2 mg/ml, 5 min. after drug administration
The response must be a number in % with no trailing unit.

Ask | Kindly indicate its recorded inhibition at 3200 µg/mL. Item: CCCCCC(O)CCC1CCC(=O)C1CCCCCCC(=O)CO (centres unmarked)
Reply | 70

Ask | Kindly indicate its recorded inhibition at 3200 µg/mL. Item: CCCCC(C)(O)CC=CC1C(O)CC(=O)C1CC=CCCCC(=O)CO (centres unmarked)
Reply | 90

Ask | Kindly indicate its recorded inhibition at 3200 µg/mL. Item: C=CC(O)(CC=CC1C(O)CC(=O)C1CC=CCCCC(=O)COC(C)=O)CCCC (centres unmarked)
Reply | 92

Ask | Kindly indicate its recorded inhibition at 3200 µg/mL. Item: CCCCC1(C(O)C=CC2C(O)CC(=O)C2CC=CCCCC(=O)CO)CCC1 (centres unmarked)
Reply | 80

Ask | Kindly indicate its recorded inhibition at 3200 µg/mL. Item: CCCCCC(O)C=CC1C(O)CC(=O)C1CCCCCCC(=O)CO (centres unmarked)
Reply | 80

* * *

Test system: continuous respiratory spasm induced by pilocarpine
run-description: Bronchodilator Activity (Pilocarpine Assay)
Format: in vivo
condition: Canis lupus familiaris, inhaled or nasal, 5 min; dog, aerosol, 3.2 mg/ml, 5 min. after drug administration
result-type: inhibition at 3200 µg/mL
Please append the unit to your numeric answer.

Ask | Kindly indicate its recorded inhibition at 3200 µg/mL. Item: CCCCC(O)(CC)CC=CC1C(O)CC(=O)C1CC=CCCCC(=O)CO (stereo not drawn)
Reply | 70%

Ask | Kindly indicate its recorded inhibition at 3200 µg/mL. Item: CCCCC1(C(O)C=CC2C(O)CC(=O)C2CCCCCCC(=O)CO)CCC1 (stereo not drawn)
Reply | 90%

Ask | Kindly indicate its recorded inhibition at 3200 µg/mL. Item: CCCCC(C)(O)CC=CC1C(O)CC(=O)C1CCCCCCC(=O)CO (stereo not drawn)
Reply | 90%

Ask | Kindly indicate its recorded inhibition at 3200 µg/mL. Item: C=CC(O)(CC=CC1C(O)CC(=O)C1CC=CCCCC(=O)CO)CCCC (stereo not drawn)
Reply | 80%

Ask | Kindly indicate its recorded inhibition at 3200 µg/mL. Item: C=CC(O)(CC=CC1C(O)CC(=O)C1CCCCCCC(=O)CO)CCCC (stereo not drawn)
Reply | 90%

Ask | Kindly indicate its recorded inhibition at 3200 µg/mL. Item: CCCCCC(C)(O)CC=CC1C(O)CC(=O)C1CCCCCCC(=O)CO (stereo not drawn)
Reply | 55%

* * *

Give measured ED50 for each item. Keep answers brief.
System: bronchospasms elicited by acetylcholine
run-description: Bronchodilator Activity (Konzett Assay), acetylcholine
Assay type: in vivo
condition: Cavia porcellus; guinea pig, intravenous, spasmogen acetylcholine, three logarithmic cumulative doses; read-out: ED50
Method: The bronchodilator activity of some of the PGE compounds of this invention is determined in guinea pigs against bronchospasms elicited by intravenous injections of 5-hydroxytryptamine, histamine or acetylcholine by the Konzett procedure. [See J. Lulling, P. Lievens, F. El Sayed and J. Prignot, Arzneimittel-Forschung, 18, 995 (1968)]. […]

Ask | Kindly indicate its recorded ED50. Item: C=CC(O)(CC=CC1C(O)CC(=O)C1CCCCCCC(=O)CO)CCCC (centres unmarked)
Reply | 1.7 µg/kg

Ask | Kindly indicate its recorded ED50. Item: C=CC(O)(CC=CC1C(O)CC(=O)C1CC=CCCCC(=O)CO)CCCC (centres unmarked)
Reply | 2.66 µg/kg

Ask | Kindly indicate its recorded ED50. Item: C=CC(O)(CC=CC1C(O)CC(=O)C1CC=CCCCC(=O)COC(C)=O)CCCC (centres unmarked)
Reply | 0.795 µg/kg

Ask | Kindly indicate its recorded ED50. Item: CCCCC(C)(O)CC=CC1C(O)CC(=O)C1CCCCCCC(=O)CO (centres unmarked)
Reply | 4.7 µg/kg

Ask | Kindly indicate its recorded ED50. Item: CCCCC1(C(O)C=CC2C(O)CC(=O)C2CCCCCCC(=O)CO)CCC1 (centres unmarked)
Reply | 1.3 µg/kg

Ask | Kindly indicate its recorded ED50. Item: CCCCCC(O)C=CC1C(O)CC(=O)C1CCCCCCC(=O)CO (centres unmarked)
Reply | 3.9 µg/kg

Ask | Kindly indicate its recorded ED50. Item: CCCCC(C)(O)CC=CC1C(O)CC(=O)C1CC=CCCCC(=O)CO (centres unmarked)
Reply | 6.4 µg/kg

Ask | Kindly indicate its recorded ED50. Item: CCCCCC(C)(O)CC=CC1C(O)CC(=O)C1CC=CCCCC(=O)CO (centres unmarked)
Reply | 19 µg/kg
